Just for reference, paper PMC12209991 is where these values come from.

Procedure summary: Single ascending dose (SAD) pharmacokinetics in healthy volunteers
Type: in vivo, human
Condition notes: human, plasma, po, 25 mg, single oral dose 25 mg, plasma; read-out: Tmax, median [min-max]
Observation type: Tmax (h)

chemical_string=CC(=O)N1CCC(COc2cc(F)c3c(=O)[nH]c(CSC4CCOCC4)nc3c2)CC1 val=2

---

Procedure summary: Pantoprazole (PPI) effect on RBN-3143 pharmacokinetics, cross-over
Assay type: in vivo, human
Condition notes: human, plasma, po, 500 mg, single 500 mg oral dose, fasted without pantoprazole; read-out: Cmax, mean (SD)
Observation type: Cmax (µg/mL)

compound="CC(=O)N1CCC(COc2cc(F)c3c(=O)[nH]c(CSC4CCOCC4)nc3c2)CC1 [RBN‐3143]" observation_type=Cmax val=1.6

---

Procedure summary: Single ascending dose (SAD) pharmacokinetics in healthy volunteers
Format: in vivo, human
Condition notes: human, plasma, po, 100 mg, single oral dose 100 mg, plasma; read-out: Tmax, median [min-max]
Observation type: Tmax (h)

compound="CC(=O)N1CCC(COc2cc(F)c3c(=O)[nH]c(CSC4CCOCC4)nc3c2)CC1 [RBN‐3143]" val=1.75

---

Procedure summary: Multiple ascending dose (MAD) pharmacokinetics in healthy volunteers, BID for 14 days
Format: in vivo, human
Condition notes: human, plasma, oral, 300 mg, 300 mg BID, Day 14, plasma; read-out: AUC12, mean (SD)
Observation type: AUC (ng·h/mL)

compound="CC(=O)N1CCC(COc2cc(F)c3c(=O)[nH]c(CSC4CCOCC4)nc3c2)CC1 [RBN‐3143]" observation_type=AUC val=9860

---

Tested on: CYP3A4
Procedure summary: clinical
Condition notes: human, in vivo, po, 2 mg, AUClast, geometric mean (Geo CV%), midazolam 2 mg single oral dose without RBN-3143 (day 1), N=12
Observation type: AUC(0-t) (ng·h/mL)

chemical_string=Cc1ncc2n1-c1ccc(Cl)cc1C(c1ccccc1F)=NC2 observation_type=AUC(0-t) measurement_units=ng·h/mL val=19.8

---

Procedure summary: Pantoprazole (PPI) effect on RBN-3143 pharmacokinetics, cross-over
Type: in vivo, human
Condition notes: human, plasma, po, single 500 mg oral dose, fasted with pantoprazole 40 mg QD; read-out: AUClast, mean (SD)
Observation type: AUC(0-t) (ng·h/mL)

chemical_string=CC(=O)N1CCC(COc2cc(F)c3c(=O)[nH]c(CSC4CCOCC4)nc3c2)CC1 val=13400

---

Test system: CYP3A4
Procedure summary: clinical
Condition notes: human, in vivo, po, AUClast, geometric mean (Geo CV%), midazolam 2 mg single oral dose with RBN-3143 300 mg BID at steady state (day 16), N=12
Observation type: AUC(0-t) (ng·h/mL)

molecule="Cc1ncc2n1-c1ccc(Cl)cc1C(c1ccccc1F)=NC2 [Midazolam, midazolam]" val=17.2

---

Procedure summary: Multiple ascending dose (MAD) pharmacokinetics in healthy volunteers, BID for 14 days
Format: in vivo, human
Condition notes: human, plasma, oral, 150 mg, 150 mg BID, Day 1, plasma; read-out: Cmax, geometric mean (Geo CV%)
Observation type: Cmax (ng/mL)

chemical_string=CC(=O)N1CCC(COc2cc(F)c3c(=O)[nH]c(CSC4CCOCC4)nc3c2)CC1 observation_type=Cmax val=597

---

Procedure summary: Multiple ascending dose (MAD) pharmacokinetics in healthy volunteers, BID for 14 days
Format: in vivo, human
Condition notes: human, plasma, oral, 500 mg, 500 mg BID, Day 1, plasma; read-out: AUC12, geometric mean (Geo CV%)
Observation type: AUC (ng·h/mL)

chemical_string=CC(=O)N1CCC(COc2cc(F)c3c(=O)[nH]c(CSC4CCOCC4)nc3c2)CC1 val=8040

---

Tested on: CYP3A4
Procedure summary: clinical
Condition notes: human, in vivo, po, t1/2, mean (SD), midazolam 2 mg single oral dose with RBN-3143 300 mg BID at steady state (day 16)
Observation type: half-life (h)

chemical_string=Cc1ncc2n1-c1ccc(Cl)cc1C(c1ccccc1F)=NC2 val=3.49

---

Procedure summary: Food effect (high-fat breakfast) on RBN-3143 pharmacokinetics, cross-over
Assay type: in vivo, human
Condition notes: human, plasma, po, 500 mg, single 500 mg oral dose, fasted, N=13; read-out: AUClast, mean (SD)
Observation type: AUC(0-t) (ng·h/mL)

compound="CC(=O)N1CCC(COc2cc(F)c3c(=O)[nH]c(CSC4CCOCC4)nc3c2)CC1 [RBN‐3143]" val=13300

---

Procedure summary: Pantoprazole (PPI) effect on RBN-3143 pharmacokinetics, cross-over
Assay type: in vivo, human
Condition notes: human, plasma, po, single 500 mg oral dose, fasted with pantoprazole 40 mg QD; read-out: Cmax, geometric mean (Geo CV%)
Observation type: Cmax (ng/mL)

chemical_string=CC(=O)N1CCC(COc2cc(F)c3c(=O)[nH]c(CSC4CCOCC4)nc3c2)CC1 val=1540

---

Procedure summary: Single ascending dose (SAD) pharmacokinetics in healthy volunteers
Format: in vivo, human
Condition notes: human, plasma, po, 300 mg, single oral dose 300 mg, plasma; read-out: AUCinf, mean (SD)
Observation type: AUC(0-inf) (ng·h/mL)

chemical_string=CC(=O)N1CCC(COc2cc(F)c3c(=O)[nH]c(CSC4CCOCC4)nc3c2)CC1 observation_type=AUC(0-inf) measurement_units=ng·h/mL val=6440

---

Procedure summary: Multiple ascending dose (MAD) pharmacokinetics in healthy volunteers, BID for 14 days
Type: in vivo, human
Condition notes: human, plasma, oral, 500 mg, 500 mg BID, Day 14, plasma; read-out: AUC12, geometric mean (Geo CV%)
Observation type: AUC (ng·h/mL)

molecule="CC(=O)N1CCC(COc2cc(F)c3c(=O)[nH]c(CSC4CCOCC4)nc3c2)CC1 [RBN‐3143]" val=12400

---

Procedure summary: Single ascending dose (SAD) pharmacokinetics in healthy volunteers
Assay type: in vivo, human
Condition notes: human, plasma, po, 100 mg, single oral dose 100 mg, plasma; read-out: Cmax, geometric mean (Geo CV%)
Experimental: Analytes were separated by HPLC on a Waters Atlantis T3 analytical column using a gradient mobile phase (mobile phase A: 10% acetonitrile, 90% water, 10 mM ammonium acetate, 0.3% formic acid; mobile phase B: 90% acetonitrile, 10% water, 10 mM ammonium acetate, 0.3% formic acid) run at 0.4 mL/min with initial mobile phase B concentration of 30%.
Observation type: Cmax (ng/mL)

chemical_string=CC(=O)N1CCC(COc2cc(F)c3c(=O)[nH]c(CSC4CCOCC4)nc3c2)CC1 val=544

---

Procedure summary: Single ascending dose (SAD) pharmacokinetics in healthy volunteers
Assay type: in vivo, human
Condition notes: human, plasma, po, 50 mg, single oral dose 50 mg, plasma; read-out: Cmax, mean (SD)
Protocol: Analytes were separated by HPLC on a Waters Atlantis T3 analytical column using a gradient mobile phase (mobile phase A: 10% acetonitrile, 90% water, 10 mM ammonium acetate, 0.3% formic acid; mobile phase B: 90% acetonitrile, 10% water, 10 mM ammonium acetate, 0.3% formic acid) run at 0.4 mL/min with initial mobile phase B concentration of 30%.
Observation type: Cmax (ng/mL)

chemical_string=CC(=O)N1CCC(COc2cc(F)c3c(=O)[nH]c(CSC4CCOCC4)nc3c2)CC1 measurement_units=ng/mL val=269

---

Procedure summary: Multiple ascending dose (MAD) pharmacokinetics in healthy volunteers, BID for 14 days
Format: in vivo, human
Condition notes: human, plasma, oral, 500 mg, 500 mg BID, Day 1, plasma; read-out: Cmax, mean (SD)
Observation type: Cmax (ng/mL)

molecule="CC(=O)N1CCC(COc2cc(F)c3c(=O)[nH]c(CSC4CCOCC4)nc3c2)CC1 [RBN‐3143]" val=1320

---

Procedure summary: Food effect (high-fat breakfast) on RBN-3143 pharmacokinetics, cross-over
Type: in vivo, human
Condition notes: human, plasma, po, 500 mg, single 500 mg oral dose, fasted, N=13; read-out: AUCinf, geometric mean (Geo CV%)
Observation type: AUC(0-inf) (ng·h/mL)

molecule="CC(=O)N1CCC(COc2cc(F)c3c(=O)[nH]c(CSC4CCOCC4)nc3c2)CC1 [RBN‐3143]" val=13300

---

Procedure summary: Pantoprazole (PPI) effect on RBN-3143 pharmacokinetics, cross-over
Format: in vivo, human
Condition notes: human, plasma, po, single 500 mg oral dose, fasted with pantoprazole 40 mg QD; read-out: AUClast, geometric mean (Geo CV%)
Observation type: AUC(0-t)

chemical_string=CC(=O)N1CCC(COc2cc(F)c3c(=O)[nH]c(CSC4CCOCC4)nc3c2)CC1 val="13000 ng·h/mL"

---

Procedure summary: Single ascending dose (SAD) pharmacokinetics in healthy volunteers
Assay type: in vivo, human
Condition notes: human, plasma, po, 1000 mg, single oral dose 1000 mg, plasma; read-out: Cmax, mean (SD)
Observation type: Cmax

chemical_string=CC(=O)N1CCC(COc2cc(F)c3c(=O)[nH]c(CSC4CCOCC4)nc3c2)CC1 val="1500 ng/mL"
